Target: T1, ANTIBODY EXPRESSION CONTROL
T1 construct: also called mouse anti-canine antibody (capture reagent of the expression control ELISA)
Assay: SPR Biacore, expression control
measured_property: koff (s⁻¹)
// note: answer is a bare numeric in s⁻¹

Sample records with koff:
Ask: Any idea what its koff is? The binder is Mu_19F07_VH (SEQ ID NO: 47)_S56A (antibody, V domains shown) VH: EVKLVESEGGLVQPGSSMKLSCTASGFTFSDYYMAWVRQVPEKGLEWVANINYDGASTYYLDSLKSRFIISRDNAKNILYLQMSSLKSEDTATYYCARGLTWDFDVWGTGTTVTVSS VL: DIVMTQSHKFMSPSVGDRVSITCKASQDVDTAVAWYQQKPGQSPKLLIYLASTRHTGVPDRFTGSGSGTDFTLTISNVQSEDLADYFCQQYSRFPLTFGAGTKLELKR
Result: 0.000646

Ask: Returns the measured koff for the input binder. Input: Mu_09E09_VH (SEQ ID NO: 35)_T102A (antibody, V domains shown) VH: DVKLVESGEGLVKPGGSLKLSCAASGFTFSSYAMSWVRQTPEKRLEWVAYISSGGDYIYYADTVKGRFTISRDNARNTLYLQMSSLKSEDTAMYYCTRDPIAGTFAYWGQGTLVTVSA VL: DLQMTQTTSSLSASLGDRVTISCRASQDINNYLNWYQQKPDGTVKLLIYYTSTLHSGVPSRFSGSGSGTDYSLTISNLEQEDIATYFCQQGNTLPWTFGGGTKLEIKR
Result: 5.33e-05

Ask: // koff lookup, key: Mu_19F07_VH (SEQ ID NO: 47)_W102A (antibody, V domains shown) VH: EVKLVESEGGLVQPGSSMKLSCTASGFTFSDYYMAWVRQVPEKGLEWVANINYDGSSTYYLDSLKSRFIISRDNAKNILYLQMSSLKSEDTATYYCARGLTADFDVWGTGTTVTVSS VL: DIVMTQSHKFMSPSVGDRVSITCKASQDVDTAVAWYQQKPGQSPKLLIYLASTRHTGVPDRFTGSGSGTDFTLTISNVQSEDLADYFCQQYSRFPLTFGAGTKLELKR
Result: 4.35e-05

Ask: What does the record list as koff for Mu_09E09_VL (SEQ ID NO: 37)_Y32A (antibody, V domains shown) VH: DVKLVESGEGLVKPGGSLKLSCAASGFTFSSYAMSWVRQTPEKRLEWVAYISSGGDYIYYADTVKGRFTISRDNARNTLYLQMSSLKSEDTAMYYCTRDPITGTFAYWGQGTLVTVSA VL: DLQMTQTTSSLSASLGDRVTISCRASQDINNALNWYQQKPDGTVKLLIYYTSTLHSGVPSRFSGSGSGTDYSLTISNLEQEDIATYFCQQGNTLPWTFGGGTKLEIKR ?
Result: 8.76e-05

Ask: Which koff is listed for Mu_02D09_VH (SEQ ID NO: 31)_Y32A (antibody, V domains shown) VH: EVQLVESGGGLVKPGGSLTLSCAASGFTFSDAGMHWLRQAPEKGLEWVAYISSGSRAVFFADTVKGRFTISRDNAKNTLFLQMTSLRSDDTAMYYCARDRYDGRGFAYWGQGTLVTVSA VL: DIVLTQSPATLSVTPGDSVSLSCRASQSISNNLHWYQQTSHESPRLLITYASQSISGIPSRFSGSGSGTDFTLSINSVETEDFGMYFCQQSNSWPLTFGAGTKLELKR ?
Result: 4.43e-05

Continuing:
Ask: Request the reported koff associated with Mu_09E09_VH (SEQ ID NO: 35)_Y59A (antibody, V domains shown) VH: DVKLVESGEGLVKPGGSLKLSCAASGFTFSSYAMSWVRQTPEKRLEWVAYISSGGDYIAYADTVKGRFTISRDNARNTLYLQMSSLKSEDTAMYYCTRDPITGTFAYWGQGTLVTVSA VL: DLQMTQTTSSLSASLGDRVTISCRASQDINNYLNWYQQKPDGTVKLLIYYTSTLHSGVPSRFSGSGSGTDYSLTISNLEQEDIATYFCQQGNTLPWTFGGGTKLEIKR
Result: 4.52e-05

Ask: Item under review: Mu_09E09_VL (SEQ ID NO: 37)_W96A (antibody, V domains shown) VH: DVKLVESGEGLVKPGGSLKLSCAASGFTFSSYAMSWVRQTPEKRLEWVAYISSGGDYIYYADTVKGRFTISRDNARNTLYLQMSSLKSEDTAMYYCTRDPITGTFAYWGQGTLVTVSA VL: DLQMTQTTSSLSASLGDRVTISCRASQDINNYLNWYQQKPDGTVKLLIYYTSTLHSGVPSRFSGSGSGTDYSLTISNLEQEDIATYFCQQGNTLPATFGGGTKLEIKR . Reported koff?
Result: 9.76e-05
